Parameter concentration at 0.5 h: see the listing below.
- MEASUREMENT DESCRIPTION: Plasma pharmacokinetics after single oral dose of Δ8-THCV in MCT oil (LC-MS/MS, non-compartmental analysis)
- Format: in vivo, human
- MEASUREMENT SETUP: human, plasma, oral, 25 mg, 0.5 h; 25 mg Δ8-THCV dose; Mean (SD, %CV)
- Description: The study was a two-phase, dose-ranging, placebo-controlled trial in 21 healthy participants to assess the safety, tolerability, PK, and PD of an oral formulation of Δ8-THCV. A detailed description of the study was published elsewhere. […] Plasma samples were analyzed using a validated high-performance liquid chromatography–tandem mass spectrometry (LC-MS/MS) assay. […] For the PK analysis, concentrations below the lower limit of quantification were set to 0 ng/mL. […]
Use ng/mL as the unit, but write only the number.

Example results:
>  <COMPOUND>
CCCc1cc(O)c2c(c1)OC(C)(C)[C@@H]1CCC(C)=C[C@@H]21 [Δ9-THCV, Δ9-tetrahydrocannabivarin]

>  <MEASURED VALUE>
0

$$$$
>  <COMPOUND>
CCCCCc1cc(O)c2c(c1)OC(C)(C)[C@@H]1CC=C(C(=O)O)CC21 (single isomer, unassigned; (+)) [Δ8-THC-COOH, (+)-11-nor-Δ8-THC-9-carboxylic acid]

>  <MEASURED VALUE>
0

$$$$
>  <COMPOUND>
CCCc1cc(O)c2c(c1)OC(C)(C)[C@@H]1CC=C(CO)C[C@@H]21 (racemic) [11-OH-Δ8-THCV, (±)-11-hydroxy-Δ8-THCV]

>  <MEASURED VALUE>
0

$$$$
>  <COMPOUND>
CCCc1cc(O)c2c(c1)OC(C)(C)[C@@H]1CC=C(C(=O)O)C[C@@H]21

>  <MEASURED VALUE>
2.7

$$$$
>  <COMPOUND>
CCCc1cc(O)c2c(c1)OC(C)(C)[C@@H]1CCC(C(=O)O)=C[C@@H]21

>  <MEASURED VALUE>
0

$$$$

Next item in the queue.
*Q* What value of concentration at 0.5 h has been reported for the following compound? CCCc1cc(O)c2c(c1)OC(C)(C)[C@@H]1CC=C(C)C[C@@H]21 [Δ8-THCV, Δ8-tetrahydrocannabivarin]
*A* 0
